Assay: Liver cell viability assay (Alamar Blue)
Settings: human, THLE-3 liver cells
READOUT: CC50 at 48 h (µM)
Report as a plain number; the unit µM is understood.

Ask: # get_value(readout='CC50 at 48 h', item= O=C(Nc1ccccc1)c1cc(Br)cc(Br)c1O [Compound 13, 3,5-Dibromo-2-hydroxy-N-phenylbenzamide] )
Result: 25.1

====

Test system: THLE-3 liver cells
Assay: Liver cell viability assay (Alamar Blue)
Details: read-out: Human Cell Viability CC50, Liver (THLE-3); THLE-3 liver cells, Alamar Blue, 48 h
READOUT: CC50

These recorded examples may help you get a feel for the data.
- COMPOUND: "O=C(Nc1ccc(Oc2ccc(Cl)cc2)c(Cl)c1)c1cc(I)cc(I)c1O [Rafoxanide, rafoxanide, reference compound]"
  TEST_SYSTEM: "THLE-3 liver cells"
  RESULT: "24 µM"
- COMPOUND: "CC1(C)S[C@@H]2[C@H](NC(=O)[C@H](N)c3ccccc3)C(=O)N2[C@H]1C(=O)O [Ampicillin, ampicillin, reference compound]"
  TEST_SYSTEM: "THLE-3 liver cells"
  RESULT: "> 100 µM"
- COMPOUND: "O=C(Nc1cccc(Cl)c1)c1cc(Br)cc(Br)c1O"
  TEST_SYSTEM: "THLE-3 liver cells"
  RESULT: "9.2 µM"

Ask: # get_value(readout='CC50', item= O=C(Nc1ccccc1)c1ccccc1O [Compound 16, 2-Hydroxy-N-phenylbenzamide] )
Result: 68 µM

The reported measurements were obtained from patent US20210395210A1.
